- System: Alopecurus myosuroides (ALOMY)
- Experimental Details: Pre-emergence biological efficacy, glasshouse pot test
- Format: in vivo
- Conditions: 312 h, pre-emergence, rate 1,000 g/ha, evaluated after 13 days (100=total damage to plant; 0=no damage), read-out: Percentage damage caused to weed species, ALOMY
Readout Name: pest or weed control at 1000 g/ha (%)
One number for each entry, in %.

Smiles Data | Measured On | pest or weed control at 1000 g/ha (%)
C=Cc1c(NCc2ccco2)nc(-c2ccc(Cl)cc2)nc1C(=O)OC | Alopecurus myosuroides (ALOMY) | 50
COC(=O)c1nc(-c2cc(F)c(Cl)c(F)c2)nc(NCc2ccco2)c1Cl | Alopecurus myosuroides (ALOMY) | 0
COC(=O)c1nc(-c2ccc(Cl)cc2OC)nc(NCc2ccco2)c1Cl | Alopecurus myosuroides (ALOMY) | 20

Hi there! I need pest or weed control at 1000 g/ha for each item below, if you can.
1. COC(=O)c1nc(C2CC2)nc(N(Cc2ccccc2)C[Si](C)(C)C)c1Cl
2. COC(=O)c1nc(-c2ccc(C)c([N+](=O)[O-])c2)nc(NCc2ccco2)c1Cl
3. COC(=O)c1nc(C2CC2)nc(N(Cc2ccccc2)Cc2ccccc2)c1Cl
4. Cc1c(NCC2CC2)nc(C2CC2)nc1OCC(=O)NCC1CC1
5. CCN(Cc1ccnc(C)n1)c1nc(C2CC2)nc(C(=O)OC)c1Cl

1. 20
2. 0
3. 0
4. 0
5. 0

Hi there! I need pest or weed control at 1000 g/ha for each item below, if you can.
1. COC(=O)c1nc(C2CC2)nc(N(C)Cc2ccc(C)o2)c1Cl
2. COC(=O)c1nc(-c2ccc(C)c(Cl)c2)nc(NCc2ccco2)c1Cl
3. COC(=O)c1nc(-c2ccc(Cl)c(OC)c2F)nc(NCC2CC2)c1Cl

30
0
40

Hi there! I need pest or weed control at 1000 g/ha for each item below, if you can.
1. CCN(Cc1cccc(F)c1)c1nc(C2CC2)nc(C(=O)OC)c1Cl
2. CCN(Cc1cccs1)c1nc(C2CC2)nc(C(=O)OC)c1Cl
3. COC(=O)c1nc(C2CC2)nc(N(C)Cc2ccccc2[N+](=O)[O-])c1Cl
4. COC(=O)c1nc(C2CC2)nc(N(CCC#N)Cc2ccco2)c1Cl

20
10
20
20

Hi there! I need pest or weed control at 1000 g/ha for each item below, if you can.
1. COC(=O)c1nc(-c2ccc(Cl)c(OC)c2F)nc(NCc2ccc(C)o2)c1Cl
2. COC(=O)c1nc(-c2ccc(Cl)cc2C(F)(F)F)nc(NCc2ccco2)c1Cl

70
0

---

- Tested on: Solanum nigrum (SOLNI)
- Experimental Details: Pre-emergence biological efficacy, glasshouse pot test
- Type: in vivo
- Conditions: 312 h, pre-emergence, rate 1,000 g/ha, evaluated after 13 days (100=total damage to plant; 0=no damage), read-out: Percentage damage caused to weed species, SOLNI
Readout Name: pest or weed control at 1000 g/ha (%)
Numbers only, in %.

Compound | pest or weed control at 1000 g/ha / %
CCCCN(Cc1ccccc1)c1nc(C2CC2)nc(C(=O)OC)c1Cl | 80
COC(=O)c1nc(C2CC2)nc(N(C)[C@@H](Cc2ccccc2)C(=O)OC)c1Cl [5-283 (S)] | 40

Hi there! I need pest or weed control at 1000 g/ha for each item below, if you can.
1. C=Cc1ccc(-c2c(NCc3ccco3)nc(C3CC3)nc2C(=O)OC)cc1
2. COC(=O)c1nc(C2CC2)nc(N(C)Cc2cccc(C(F)(F)F)c2)c1Cl
3. COc1c(Cl)ccc(-c2nc(NCc3ccco3)c(Cl)c(C(=O)O)n2)c1F
4. COC(=O)c1nc(C2CC2)nc(N(Cc2ccccc2)Cc2ccccc2)c1Cl
5. COC(=O)c1nc(-c2ccc(Cl)c(Cl)c2F)nc(NCc2ccco2)c1Cl

1: 0; 2: 40; 3: 100; 4: 0; 5: 100
